# protocol.description: NCI Yeast Anticancer Drug Screen. Data for the mlh1 rad18 strain (AID 175)
# conditions: S. cerevisiae mlh1 rad18 strain growth inhibition; at 50.0 µM; stronger effect = higher value
Compounds without any hit were thinned out: in the full panel of roughly 79,000, 15% have a hit.
measurement.label: growth inhibition (%)
Write the answer as a number in %, unit excluded.

Input line: Entry under review: CNc1ccc(C(=O)NC(CCCCNC(=O)OCc2ccccc2)C(=O)OC)cc1 (stereo not drawn) . Reported growth inhibition?
Output line: 98.6

Input line: Entry under review: CN(C)CCNC(=O)C(c1ccccc1)c1ccccc1 . Reported growth inhibition?
Output line: 98.5

Input line: Entry under review: CC(=O)N(C)c1ccc2c(c1)Cc1ccccc1-2 . Reported growth inhibition?
Output line: 23.1

Input line: Entry under review: CCOC(=O)/C=C(\C)c1ccc([N+](=O)[O-])cc1 . Reported growth inhibition?
Output line: 3.95

Input line: Entry under review: O=C(O)C(Cc1cc(I)c(O)c(I)c1)C1CCCCC1 (stereo not drawn) . Reported growth inhibition?
Output line: 98.8

Input line: Entry under review: Cc1ccc(O)c(C(C)c2ccccc2)c1 (stereo not drawn) . Reported growth inhibition?
Output line: 99.1

Input line: Entry under review: CCOc1ccccc1/C=C1\NC(=O)N(/C=C2\C(=O)Oc3ccccc3C2=O)C1=O . Reported growth inhibition?
Output line: 95.5

Input line: Entry under review: CCOC1(OCC)C(C)C(c2ccccc2)C(c2ccccc2)C1C (stereo not drawn) . Reported growth inhibition?
Output line: 98.7

Input line: Entry under review: CCC(=O)[O][Bi]([c]1ccccc1)[c]1ccccc1 . Reported growth inhibition?
Output line: 90

Input line: Entry under review: CC12CCC(O)CC1=CCC1C2CCC2(C)/C(=C\C#N)CCC12 (stereo not drawn) . Reported growth inhibition?
Output line: 73.9

Input line: Entry under review: Cc1[nH]n(C(N)=S)c(=O)c1N=Nc1ccc([N+](=O)[O-])cc1 . Reported growth inhibition?
Output line: 93.4

Input line: Entry under review: CC(=O)NC1=C(Nc2ccc(-c3ccc(NC4=C(NC(C)=O)C(=O)c5ccccc5C4=O)cc3)cc2)C(=O)c2ccccc2C1=O . Reported growth inhibition?
Output line: 99.3

Input line: Entry under review: COc1cc(OC)c(C/C=C/c2ccccc2)cc1O . Reported growth inhibition?
Output line: 89.3

Input line: Entry under review: Clc1nssc1=Nc1nonc1-c1ccccc1 . Reported growth inhibition?
Output line: 92.2

Input line: Entry under review: O=C(N/N=C/c1ccccc1[O-])c1ccccc1O.O=C(N/N=C/c1ccccc1[O-])c1ccccc1O.[Mn+2] . Reported growth inhibition?
Output line: 97.8

Input line: Entry under review: O=C1C2C3CCC(O3)C2C(=O)N1c1cccc2ccccc12 (stereo not drawn) . Reported growth inhibition?
Output line: 8.3

Input line: Entry under review: N#CC1Sc2ccccc2N1C(=O)c1ccccc1 (stereo not drawn) . Reported growth inhibition?
Output line: 98

Input line: Entry under review: Nc1nc(Cl)cc(Nc2ccc(Cl)c(Cl)c2)n1 . Reported growth inhibition?
Output line: 89.8

Input line: Entry under review: CCCCN1CSC(=S)N(Cc2ccccc2)C1 . Reported growth inhibition?
Output line: 31.4

Input line: Entry under review: S=c1[nH]nc(Nc2ccccc2Cl)s1 . Reported growth inhibition?
Output line: 47.9

Input line: Entry under review: CC(=O)N(C1=CC(=O)c2ccccc2C1=O)c1ccc(C)cc1 . Reported growth inhibition?
Output line: 58.1

Input line: Entry under review: Nc1nc(N)c2nc(CNc3ccc(C(=O)NC(CCC(=O)O)C(=O)O)cc3)ccc2n1 (stereo not drawn) . Reported growth inhibition?
Output line: -20.7

Input line: Entry under review: CCCCC(=S)N1CCN(c2ccccc2)CC1 . Reported growth inhibition?
Output line: 87.8

Input line: Entry under review: OC(C/C(=N\N=C(/CC(O)(C(F)(F)F)C(F)(F)F)c1ccccc1)c1ccccc1)(C(F)(F)F)C(F)(F)F . Reported growth inhibition?
Output line: 71.1

Input line: Entry under review: O=S1(=O)c2ccccc2C(O)(c2ccccc2)c2cc3ccccc3n21 (stereo not drawn) . Reported growth inhibition?
Output line: 95.5

Input line: Entry under review: CCOC(=O)C(NC(C)=O)[CH](c1ccccc1)[Sn]([Cl])([c]1ccccc1)[c]1ccccc1 (stereo not drawn) . Reported growth inhibition?
Output line: 60.5

Input line: Entry under review: COc1ccc(Cc2coc3ccccc3c2=O)cc1OC . Reported growth inhibition?
Output line: 0.95

Input line: Entry under review: C/C(=N\NC(=S)N1CCN(c2ccccc2)CC1)c1nccs1 . Reported growth inhibition?
Output line: 89.8

Input line: Entry under review: CC(=O)OC1C2C3C(C=CC2[C@H]1OC(C)=O)C1C3C=CC2C1C(OC(C)=O)[C@@H]2OC(C)=O (stereo partly drawn) . Reported growth inhibition?
Output line: 12.9

Input line: Entry under review: Cc1c(N=Nc2ccccc2Cl)c(-c2ccccc2)nn1C(=S)S . Reported growth inhibition?
Output line: 97.8

Input line: Entry under review: CC(C)C(O)(C(=O)OCN1C(=O)C2C3C=CC(C2C1=O)C1C2C(=O)N(COC(=O)C(O)(C(C)C)C(C)O)C(=O)C2C31)C(C)O (stereo not drawn) . Reported growth inhibition?
Output line: 30.6

Input line: Entry under review: c1cc(CCSSCCc2ccncc2)ccn1 . Reported growth inhibition?
Output line: 30.3

Input line: Entry under review: COc1ccc2nc3cc(Cl)ccc3c(NCCC[N+](C)(C)CCCCCCCCCC[N+](C)(C)CCCNc3c4ccc(Cl)cc4nc4ccc(OC)cc34)c2c1 . Reported growth inhibition?
Output line: 96.2

Input line: Entry under review: c1ccc(N=Nc2ccc3ccccc3c2)cc1 . Reported growth inhibition?
Output line: 21.8

Input line: Entry under review: C/C(=N/O)c1ccc2c(c1)C(C)c1ccccc1-2 (stereo not drawn) . Reported growth inhibition?
Output line: 75

Input line: Entry under review: O=[N+]([O-])c1ccc(NS(=O)(=O)c2ccc(Cl)c(Cl)c2Cl)c([N+](=O)[O-])c1 . Reported growth inhibition?
Output line: 75.2

Input line: Entry under review: O=C1Nc2c(Cl)cc(Cl)cc2/C1=N/N=C/c1ccco1 . Reported growth inhibition?
Output line: 89.2

Input line: Entry under review: C=CCCCCCCCCC(=O)CCCCCCCCC=C . Reported growth inhibition?
Output line: 5.75

Input line: Entry under review: COc1ccc(Cl)c(-c2cc(OC)c(N=N/C(=N/Nc3ccc([N+](=O)[O-])cc3)c3ccc([N+](=O)[O-])cc3)cc2Cl)c1 . Reported growth inhibition?
Output line: 76.1

Input line: Entry under review: Nc1cn(C2OC(CC(c3ccccc3)(c3ccccc3)c3ccccc3)C(O)C2O)c(=O)[nH]c1=O (stereo not drawn) . Reported growth inhibition?
Output line: 34.6

Input line: Entry under review: O=C1C=C(c2ccccc2)OC1(Nc1ccccc1)c1ccccc1 (stereo not drawn) . Reported growth inhibition?
Output line: 59.9

Input line: Entry under review: CC(NNC(=S)N1CCCCCC1)c1cccnn1 (stereo not drawn) . Reported growth inhibition?
Output line: 85

Input line: Entry under review: OC(Cn1cncn1)(Cn1cncn1)c1ccc(Cl)cc1Cl . Reported growth inhibition?
Output line: 48.2

Source: PubChem BioAssay (NCI)
